System: MS2 coat protein
Experimental details: apparent KD of MS2 coat protein; designed switch direction (-1 OFF switch, 1 ON switch): -1; higher = weaker reporter binding
Experimental setup: input ligand: FMN 200 uM

# Chain, System, apparent KD of MS2 coat protein (nM)
rows = [
    ("UUUACAAGCUUUAGAUCCCACAUGAGGAUCACCCAUGUUGCUGCCGUGAGGUAGCUUUUAACUAAUGCUCGUCUUAU [JL TOV1 3.41] (Eterna round: R97, puzzle: Sensor, turn-off variant 1)", "MS2 coat protein", 103),
    ("ACAUGAGGAUCACCCAUGUGGACGUAAUGGCUCAUGUAGAGUGAGGAUAUGUGAGACGAACGAGAACAGAAGGCACAAGACAGG [Deportation 7 - Jieux - Exclusion NG 3] (Eterna round: R96, puzzle: Exclusion NG 3)", "MS2 coat protein", 26.3),
    ("CUGAACCCGGUAGGAUAUAUUGUGGGCGGGCGUGGAACGACAUGAGGAUCACCCAUGUGAUUGAGGUAGAAGGGCCGAGAGGUU [Excl-NG2-LRO17] (Eterna round: R96, puzzle: Exclusion NG 2)", "MS2 coat protein", 42.6),
    ("GUGGUUUGUGUAGGAUAUUCGUUUGUGCGGUGCGGAGAAGGACAUGAGGAUCACCCAUGUGUGCGAGGAUCACCCGUGUGUUGU [double 2 (less A)] (Eterna round: R96, puzzle: Exclusion NG 1)", "MS2 coat protein", 55.6),
]
